# Tested on: T1, insulin (UniProt P01308 25-54; P01308 90-110, limits assumed)
# T1 construct: Mature insulin has two chains (A and B) from one precursor; also called b-insulin
# T1 sequence (P01308 25-54 limits assumed, form in doubt, chain 1 of 2): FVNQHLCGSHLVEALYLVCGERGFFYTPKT
# T1 sequence (P01308 90-110 limits assumed, form in doubt, chain 2 of 2): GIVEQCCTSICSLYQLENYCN
# Assay name: SPR, Biacore T200; target immobilized on CM5, His6-tagged Y variant injected; 1:1 Langmuir
Let's look at some binders and their measured koff.
Readout: koff (s⁻¹)

Binder: Y02716 (designed binder, Y00301 with K15Y + Q26E) MGSSHHHHHHGSSLAEAKEAAIAELDSYGVGARQIKWIEQAKSVEVVQWLKQAILADLPA
Unit symbol: s⁻¹
Result value: 0.21
--
Binder: Y00358 (designed binder, From library Ylib002Naive.I) MGSSHHHHHHGSSLAEAKEAAIAELDSKGVGAAKIKWIQDAKSVETVQFLKQAILAELPA
Unit symbol: s⁻¹
Result value: 0.0023
--
Binder: Y00310 (designed binder, From library Ylib002Naive.I) MGSSHHHHHHGSSLAEAKEAAIAELDSKGVGAYQIKFIQIAHTVEEVQLMKQAILADLPA
Unit symbol: s⁻¹
Result value: 0.0063
--
Binder: Y02710 (designed binder, Y00358 with K15Y) MGSSHHHHHHGSSLAEAKEAAIAELDSYGVGAAKIKWIQDAKSVETVQFLKQAILAELPA
Unit symbol: s⁻¹
Result value: 0.0027
--
Binder: Y00361 (designed binder, From library Ylib002Naive.I) MGSSHHHHHHGSSLAEAKEAAIAELDSKGVGAKFIKMIQSAKLVETVQLLKQAILADLPA
Unit symbol: s⁻¹
Result value: 0.0036
